Tested on: metabolism of retinoic acid in human breast cancer cells
Assay: Inhibition of retinoic acid (RA) metabolism (Example C.1)
Type: cell-based
Details: MCF-7 human breast cancer cells, 3H-RA as substrate; concentration needed to reduce the amount of metabolites to 50% of the control
parameter_measured: pIC50
Remember the convention: pIC50 equals -log10 of concentration in molar.

Answered examples (4):
CC(C)C(c1ccc(NC(=O)c2cc3ccccc3s2)cc1)n1ccnc1 (racemic)	8.63
CCC(CC)C(c1ccc(NC(=O)Cc2ccc(OCc3ccncc3)cc2)cc1)n1ccnc1 (stereo not drawn)	10.55
C/C(=C\c1ccccc1)C(=O)Nc1ccc(C(C(C)N(C)C)n2cncn2)cc1 (single isomer, unassigned)	8.82
CCC(CC)C(c1ccc(NC(=O)Cc2cccc(OC)c2OCc2ccccc2)cc1)n1ccnc1 (racemic)	8.09

Input: Please give the measured pIC50 for this compound: CCC(CC)C(c1ccc(NC(=O)Cc2ccccc2OC)cc1)n1ccnc1 (racemic)
Output: 9.88

Input: Please give the measured pIC50 for this compound: CCOc1ccc(CC(=O)Nc2ccc(C(C(C)N(C)C)n3ccnc3)cc2)cc1OCC (single isomer, unassigned)
Output: 8.22

Input: Please give the measured pIC50 for this compound: CC(C)C(c1ccc(NC(=O)C(C)(C)Oc2ccc(Cl)cc2)cc1)n1ccnc1 (racemic)
Output: 8.48

Input: Please give the measured pIC50 for this compound: CC(C(c1ccc(NC(=O)Cc2ccc(O)c(Cl)c2)cc1)n1ccnc1)N(C)C (single isomer, unassigned) [Compound 307]
Output: 9.15

Input: Please give the measured pIC50 for this compound: CCC(CC)C(c1ccc(NC(=O)C2CCN(C(=O)c3ccccc3)CC2)cc1)n1ccnc1 (racemic)
Output: 8.71

Input: Please give the measured pIC50 for this compound: CC(C)C(c1ccc(NC(=O)C2CCOC2)cc1)n1ccnc1 (racemic)
Output: 7.40

Input: Please give the measured pIC50 for this compound: CC(C)C(c1ccc(NC(=O)C2Oc3ccccc3O2)cc1)n1cncn1 (stereo not drawn)
Output: 8.73

Input: Please give the measured pIC50 for this compound: "COc1ccc(CC(=O)Nc2ccc(C(C(C)C)(C(C)C)n3ccnc3)cc2)cc1OC"
Output: 7.39

Input: Please give the measured pIC50 for this compound: C/C(=C\c1ccccc1)C(=O)Nc1ccc(C(n2ccnc2)C(C)(C)C)cc1 (racemic)
Output: 8.55

====

Catalogue of compounds with associated log10(IC50)
Test system: metabolism of retinoic acid in human breast cancer cells
Experiment: Inhibition of retinoic acid (RA) metabolism (Example C.1)
Type: cell-based
Details: MCF-7 human breast cancer cells, 3H-RA as substrate; concentration needed to reduce the amount of metabolites to 50% of the control
Description: The property to delay the metabolism of retinoic acid can be evidenced in various in vitro and in vivo experiments. […] MCF-7 human breast cancer cells were grown as stock cultures according to art-known protocols. […] The fraction containing the polar ^3H-labelled metabolites was collected and counted in a scintillation counter. […]
Annotation: log10 of IC50, nM basis.

Answered examples (5):
CC(C)C(c1ccc(NC(=O)Cc2ccc(F)cc2)cc1)n1ccnc1 (racemic)	0.13
CC(C)C(c1ccc(NC(=O)C2Oc3ccccc3O2)cc1)n1ccnc1 (stereo not shown)	0.25
CCCC(CCC)C(c1ccc(NC(=O)/C(C)=C/c2ccccc2)cc1)n1ccnc1 (stereo not shown)	1.44
C/C(=C\c1ccccc1)C(=O)Nc1ccc(C(C2CCCC2)n2ccnc2)cc1 (racemic)	1.27
C/C(=C\c1ccc2[nH]c(=O)ccc2c1)C(=O)Nc1ccc(C(C(C)C)n2ccnc2)cc1 (racemic)	1.38

Input: Please give the measured log10(IC50) for this compound: CC(C)C(c1ccc(NC(=O)C2=COc3ccccc3O2)cc1)n1ccnc1 (stereo not shown)
Output: 0.48

Input: Please give the measured log10(IC50) for this compound: COCC(C)C(c1ccc(NC(=O)Cc2ccc(OC)c(OC)c2)cc1)n1ccnc1 (racemic) [Compound 404]
Output: 0.13

Input: Please give the measured log10(IC50) for this compound: CCCC/C(=C\c1ccccc1)C(=O)Nc1ccc(C(C(C)C)n2ccnc2)cc1 (racemic)
Output: 1.70

Input: Please give the measured log10(IC50) for this compound: CCC(CC)C(c1ccc(NC(=O)Cc2ccc(C)cc2)cc1)n1ccnc1 (racemic)
Output: 0.03

Input: Please give the measured log10(IC50) for this compound: CCOc1cc(CC(=O)Nc2ccc(C(C(CC)CC)n3ccnc3)cc2)ccc1OCc1ccccc1 (stereo not shown)
Output: -1.74

====

Catalogue of molecules with associated pIC50
Tested on: metabolism of retinoic acid in human breast cancer cells
Assay: Inhibition of retinoic acid (RA) metabolism (Example C.1)
Format: cell-based
Settings: MCF-7 human breast cancer cells, 3H-RA as substrate; concentration needed to reduce the amount of metabolites to 50% of the control
Remember the convention: pIC50 equals -log10 of concentration in molar.

CC(=Cc1cccc(F)c1)C(=O)Nc1ccc(C(C(C)C)n2ccnc2)cc1 (racemic)	8.43
CCC(CC)C(c1ccc(NC(=O)Cc2ccccc2C)cc1)n1ccnc1 (racemic)	10.39
CC(C)C(c1ccc(NC(=O)Nc2cccc(Cl)c2)cc1)n1ccnc1 (racemic)	8.69
CCC(CC)C(c1ccc(NC(=O)Cc2cccc(OC)c2)cc1)n1cncn1 (racemic)	9.53
CC/C(=C(\C)C(=O)Nc1ccc(C(C(C)C)n2ccnc2)cc1)c1ccccc1 (stereo not shown)	7.64

Input: Please give the measured pIC50 for this molecule: CC(C)C(c1ccc(NC(=O)c2cccc(F)c2)cc1)n1ccnc1 (stereo not shown)
Output: 8.97

Input: Please give the measured pIC50 for this molecule: CCC(CC)C(c1ccc(NC(=O)Nc2cccc(F)c2)cc1)n1cncn1 (racemic)
Output: 8.95

Input: Please give the measured pIC50 for this molecule: CCC(C)C(c1ccc(NC(=O)Cc2ccc(Cl)cc2)cc1)n1ccnc1 (racemic)
Output: 8.85

Input: Please give the measured pIC50 for this molecule: C/C(=C\c1ccc([N+](=O)[O-])cc1)C(=O)Nc1ccc(C(C(C)C)n2ccnc2)cc1 (racemic)
Output: 8.19

====

Catalogue of compounds with associated IC50
Tested on: metabolism of retinoic acid in human breast cancer cells
Experiment: Inhibition of retinoic acid (RA) metabolism (Example C.1)
Type: cell-based
Details: MCF-7 human breast cancer cells, 3H-RA as substrate; concentration needed to reduce the amount of metabolites to 50% of the control
Experimental: The property to delay the metabolism of retinoic acid can be evidenced in various in vitro and in vivo experiments. […] MCF-7 human breast cancer cells were grown as stock cultures according to art-known protocols. […] The fraction containing the polar ^3H-labelled metabolites was collected and counted in a scintillation counter. […]
Report the figure in nM without appending any unit label.

CCC(c1ccc(NC(=O)Cc2ccc(Cl)cc2)cc1)n1ccnc1 (stereo not shown)	1.97
CCOc1ccc(CCCC(=O)Nc2ccc(C(C(CC)CC)n3ccnc3)cc2)cc1 (racemic)	0.569

Input: Form: Entry = CC(C)C(c1ccc(NC(=O)Nc2cccc(N)c2)cc1)n1ccnc1 (racemic) | System = metabolism of retinoic acid in human breast cancer cells | IC50 = ____
Output: 1.64

Input: Form: Entry = C/C(=C\c1ccc(C)o1)C(=O)Nc1ccc(C(C(C)C)n2ccnc2)cc1 (racemic) | System = metabolism of retinoic acid in human breast cancer cells | IC50 = ____
Output: 20

Input: Form: Entry = CCOc1ccc(CC(=O)Nc2ccc(C(C(CC)CC)n3ccnc3)cc2)cc1 (racemic) | System = metabolism of retinoic acid in human breast cancer cells | IC50 = ____
Output: 1.48

====

Catalogue of molecules with associated log10 IC50
Tested on: metabolism of retinoic acid in human breast cancer cells
Assay: Inhibition of retinoic acid (RA) metabolism (Example C.1)
Format: cell-based
Details: MCF-7 human breast cancer cells, 3H-RA as substrate; concentration needed to reduce the amount of metabolites to 50% of the control
Method: The property to delay the metabolism of retinoic acid can be evidenced in various in vitro and in vivo experiments. […] MCF-7 human breast cancer cells were grown as stock cultures according to art-known protocols. […] The fraction containing the polar ^3H-labelled metabolites was collected and counted in a scintillation counter. […]
Annotation: log10 of IC50, nM basis.

CCOc1ccc(NC(=O)Nc2ccc(C(C(C)C)n3ccnc3)cc2)cc1 (racemic) [Compound 707]	1.11

Input: Form: Entry = CCC(CC)C(c1ccc(NC(=O)Cc2ccc(OC)c(O)c2)cc1)n1ccnc1 (racemic) [Compound 108] | System = metabolism of retinoic acid in human breast cancer cells | log10 IC50 = ____
Output: -1.63

Input: Form: Entry = CCOC(=O)Nc1ccc(C(C(C)C)n2ccnc2)cc1 (centres unmarked) [Compound 183] | System = metabolism of retinoic acid in human breast cancer cells | log10 IC50 = ____
Output: 0.87

====

System: metabolism of retinoic acid in human breast cancer cells
Assay: Inhibition of retinoic acid (RA) metabolism (Example C.1)
Type: cell-based
Settings: MCF-7 human breast cancer cells, 3H-RA as substrate; concentration needed to reduce the amount of metabolites to 50% of the control
Catalogue of molecules with associated log10 of IC50
Annotation: log10 of IC50, nM basis.

Answered examples (5):
CCC(CC)C(c1ccc(NC(=O)Cc2ccc(OC)c(OC)c2)cc1)n1cncn1 (racemic)	-0.33
CC(C)C(c1ccc(NC(=O)CNc2ccccc2)cc1)n1ccnc1 (racemic)	0.32
CCC(CC)C(c1ccc(NC(=O)C2COc3ccccc3C2)cc1)n1ccnc1 (mixture of isomers)	0.00
CC(C)C(c1ccc(NC(=O)c2ccsc2)cc1)n1ccnc1 (racemic)	0.71
CC(C=Cc1ccccc1)C(=O)Nc1ccc(C(C(C)C)n2ccnc2)cc1 (mixture of isomers)	1.03

Input: Please give the measured log10 of IC50 for this molecule: CCC(CC)C(c1ccc(NC(=O)Cc2ccc(O)c(OC)c2)cc1)n1cncn1 (racemic)
Output: 0.22

Input: Please give the measured log10 of IC50 for this molecule: COc1cc(CC(=O)Nc2ccc(C(C(C)N(C)C)n3cncn3)cc2)ccc1Cl (single isomer, unassigned)
Output: -0.10
